target: GLP-1R (Homo sapiens); test: GLP-1R activation: cAMP increase in CHO cells stably expressing GLP-1R; assay type: cell-based; settings: read-out: EC50
Sequence (P43220 24-463): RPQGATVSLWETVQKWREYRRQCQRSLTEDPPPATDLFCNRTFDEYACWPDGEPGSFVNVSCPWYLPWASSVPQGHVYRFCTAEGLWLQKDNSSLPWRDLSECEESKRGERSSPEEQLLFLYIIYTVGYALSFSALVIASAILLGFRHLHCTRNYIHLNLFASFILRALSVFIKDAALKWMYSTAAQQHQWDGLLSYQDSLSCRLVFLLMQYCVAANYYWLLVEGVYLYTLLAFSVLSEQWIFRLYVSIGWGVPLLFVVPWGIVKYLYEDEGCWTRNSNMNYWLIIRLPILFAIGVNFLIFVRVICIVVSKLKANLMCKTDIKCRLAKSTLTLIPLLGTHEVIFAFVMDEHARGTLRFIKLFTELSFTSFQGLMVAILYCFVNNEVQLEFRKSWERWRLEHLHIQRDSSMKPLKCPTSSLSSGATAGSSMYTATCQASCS
readout_kind: EC50 (nM)
Answer in nM, number only, no unit symbol.

Problem: Answer with reported EC50 of CO[C@H]1CN(C(C)=O)C[C@H]1n1c(Cc2cc(F)c(-c3cccc(OCc4ccc(C#N)cc4F)n3)cc2F)nc2ccc(C(=O)O)cc21
Solution: 24.9

Problem: // fetch EC50 given entry CO[C@@H]1CN(C(C)=O)C[C@@H]1n1c(Cc2cc(F)c(-c3cccc(OCc4ccc(C#N)cc4F)n3)cc2F)nc2ccc(C(=O)O)cc21
Solution: 840

Problem: // fetch EC50 given entry CC(=O)NCCn1c(Cc2ccc(-c3cccc(OCc4ccc(C#N)cc4F)n3)cc2F)nc2ccc(C(=O)O)cc21
Solution: 103

Problem: Give the measured EC50 for N#Cc1ccc(COc2cccc(-c3cc(F)c(Cc4nc5ccc(C(=O)O)cc5n4CC4CC5CCN4CC5)cc3F)n2)c(F)c1 (centres unmarked)
Solution: 1160

Problem: Quick one: give measured EC50 for CC(=O)N1CCC[C@@H]1Cn1c(Cc2cc(F)c(-c3cccc(OCc4ccc(C#N)cc4F)n3)cc2F)nc2ccc(C(=O)O)cc21
Solution: 0.17

Problem: Provide measured EC50 value, entry: N#Cc1ccc(COc2cccc(-c3ccc(Cc4nc5ccc(C(=O)O)cc5n4C[C@@H]4CCN4C4COC4)c(F)c3)n2)c(F)c1 [Example 395]
Solution: 42.3

Problem: Given CC(=O)N1CC(F)(F)C[C@@H]1Cn1c(Cc2cc(F)c(-c3cccc(OCc4ccc(C#N)cc4F)n3)cc2F)nc2ccc(C(=O)O)cc21 , respond with its EC50.
Solution: 0.7

Problem: Note down EC50 recorded for CS(=O)(=O)N1CC[C@@H]1Cn1c(Cc2ccc(-c3cccc(OCc4ccc(C#N)cc4F)n3)cc2F)nc2ccc(C(=O)O)cc21
Solution: 6.01

Problem: Report measured EC50; entry is CC(=O)N1C[C@@H](F)C[C@@H]1Cn1c(Cc2cc(F)c(-c3cccc(OCc4ccc(C#N)cc4F)n3)cc2F)nc2ccc(C(=O)O)cc21
Solution: 3.98

Problem: Read the entry CC(=O)N1CCC[C@H]1Cn1c(Cc2ccc(-c3cccc(OCc4ccc(C#N)cc4F)n3)cc2F)nc2ccc(C(=O)O)cc21 and write its reported EC50.
Solution: 40.3

Problem: Look up and report measured EC50 for this entry: N#Cc1ccc(COc2cccc(-c3ccc(Cc4nc5ccc(C(=O)O)cc5n4C[C@@H]4CCN4C4COC4)c(F)c3)n2)c(F)c1 [Example 396]
Solution: 45.5

Problem: Consider the molecule CC(C)(C)OC(=O)N(CCn1c(Cc2cc(F)c(-c3cccc(OCc4ccc(C#N)cc4F)n3)cc2F)nc2ccc(C(=O)O)cc21)C1CC1 and give its recorded EC50.
Solution: 9960

Problem: Specify measured EC50 for N#Cc1ccc(COc2cccc(-c3cc(F)c(Cc4nc5ccc(C(=O)O)cc5n4CCNc4ccccc4)cc3F)n2)c(F)c1 .
Solution: 79.9

Problem: In one line, give reported EC50 of the entry CC(C)(C)C(=O)N1CC[C@@H]1Cn1c(Cc2ccc(-c3cccc(OCc4ccc(C#N)cc4F)n3)cc2F)nc2ccc(C(=O)O)cc21 .
Solution: 8310

Problem: Quick one: give measured EC50 for CN1CC2CC1(Cn1c(Cc3cc(F)c(-c4cccc(OCc5ccc(C#N)cc5F)n4)cc3F)nc3ccc(C(=O)O)cc31)C2
Solution: 25.6

Problem: Report measured EC50; entry is CC(=O)N1C[C@H](F)C[C@@H]1Cn1c(Cc2cc(F)c(-c3cccc(OCc4ccc(C#N)cc4F)n3)cc2F)nc2ccc(C(=O)O)cc21
Solution: 0.06

Problem: Dear colleague, please send me the reported EC50 for N#Cc1ccc(COc2cccc(-c3ccc(Cc4nc5ncc(C(=O)O)cc5n4CC4(CF)CC4)c(F)c3)n2)c(F)c1 when you can.
Solution: 2.64
